pKi values recorded for Histamine H3 receptor (Homo sapiens, UniProt Q9Y5N1)
One number for each entry, as −log10 of the molar value.

Some molecules with recorded pKi:
CN(C)CCC(Oc1ccccc1)c1ccc(OCCCN2CCCCC2)cc1 (stereo not given) :: 9.22
CN(C)CCC(Oc1cccc(Cl)c1)c1ccc(OCCCN2CCCCC2)cc1 (stereo in doubt; 38) :: 9.05
CN(C)CCC(Oc1ccc(C(F)(F)F)cc1)c1ccc(C#CCCN2CCCCC2)cc1 (stereo not given) :: 8.30
COc1ccc(OC(CCN(C)C)c2ccc(OCCCN3CCCCC3)cc2)cc1 (stereo not given) :: 9.00

Let us examine a further case.
Input: Give pKi for the following molecule: CC(C)N1CCN(C(=O)c2ccc(C(CCN(C)C)Oc3ccccc3)cc2)CC1 (stereo not given)
Output: 9.10
